# Tested on: Mycobacterium tuberculosis
# Experiment Description: Anti-mycobacterial activity against isoniazid and rifampicin-resistant Mycobacterium tuberculosis
# Assay type: functional
Readout Kind: MIC
Could you kindly put the unit after your number?

Query string: Look up MIC of O=C1C(=O)N(Cc2cn(CC(=O)N3CCN(c4cc5c(cc4F)c(=O)c(C(=O)O)cn5C4CC4)CC3)nn2)c2ccc(F)cc21 and report it.
Result string: 1 µg/mL

Query string: Please indicate MIC recorded for CCO/N=C1/C(=O)N(Cc2cn(CC(=O)N3CCN(c4cc5c(cc4F)c(=O)c(C(=O)O)cn5C4CC4)CC3)nn2)c2c(F)cccc21
Result string: 32 µg/mL

Query string: Fill in MIC for record CCO/N=C1/C(=O)N(Cc2cn(CC(=O)N3CCN(c4cc5c(cc4F)c(=O)c(C(=O)O)cn5C4CC4)CC3)nn2)c2ccccc21
Result string: 16 µg/mL

Query string: State its MIC: O=C(O)c1cn(C2CC2)c2cc(N3CCNCC3)c(F)cc2c1=O
Result string: 2 µg/mL

Query string: Find the measured MIC of Cc1ccc2c(c1)C(=O)C(=O)N2Cc1cn(CC(=O)N2CCN(c3cc4c(cc3F)c(=O)c(C(=O)O)cn4C3CC3)CC2)nn1 and report it.
Result string: 2 µg/mL

Query string: Provide only the value of recorded MIC for CO/N=C1/C(=O)N(Cc2cn(CC(=O)N3CCN(c4cc5c(cc4F)c(=O)c(C(=O)O)cn5C4CC4)CC3)nn2)c2c(F)cccc21
Result string: 32 µg/mL

Query string: Identify MIC associated with the compound O=C1C(=O)N(Cc2cn(CC(=O)N3CCN(c4cc5c(cc4F)c(=O)c(C(=O)O)cn5C4CC4)CC3)nn2)c2ccccc21
Result string: 0.12 µg/mL

Query string: Quickly give me recorded MIC for CO/N=C1/C(=O)N(Cc2cn(CC(=O)N3CCN(c4cc5c(cc4F)c(=O)c(C(=O)O)cn5C4CC4)CC3)nn2)c2ccc(C)cc21
Result string: 8 µg/mL

====

Can you tell me MIC for the items I'm about to list?
# System: Mycobacterium tuberculosis
# Experiment Description: Anti-mycobacterial activity against isoniazid and rifampicin-resistant Mycobacterium tuberculosis
# Type: functional
The response must be a number in µg/mL with no trailing unit.

Query string: Please supply the value of reported MIC for the item CO/N=C1/C(=O)N(Cc2cn(CC(=O)N3CCN(c4cc5c(cc4F)c(=O)c(C(=O)O)cn5C4CC4)CC3)nn2)c2ccc(F)cc21
Result string: 16

Query string: Determine its reported MIC: CCO/N=C1/C(=O)N(Cc2cn(CC(=O)N3CCN(c4cc5c(cc4F)c(=O)c(C(=O)O)cn5C4CC4)CC3)nn2)c2ccc(F)cc21
Result string: 16

Query string: Provide MIC value for the following compound: CCO/N=C1/C(=O)N(Cc2cn(CC(=O)N3CCN(c4cc5c(cc4F)c(=O)c(C(=O)O)cn5C4CC4)CC3)nn2)c2ccc(C)cc21
Result string: 32

Query string: Report measured MIC; entry is O=C1C(=O)N(Cc2cn(CC(=O)N3CCN(c4cc5c(cc4F)c(=O)c(C(=O)O)cn5C4CC4)CC3)nn2)c2c(F)cccc21
Result string: 2

Query string: Please indicate MIC recorded for CO/N=C1/C(=O)N(Cc2cn(CC(=O)N3CCN(c4cc5c(cc4F)c(=O)c(C(=O)O)cn5C4CC4)CC3)nn2)c2ccccc21
Result string: 8

This collection of values is drawn from ChEMBL document CHEMBL4385656.
